Every entry's value here was drawn from paper PMC5823406.

test_description: Whole-blood PK study (IV, IP and PO) in male CD-1 mice
Assay type: in vivo, mouse
cond: male, CD-1, mouse, whole blood, ip, 10 mg/kg, whole blood, male CD-1 mouse, IP 10 mg/kg, average; read-out: cmax
measured_attribute: cmax (ng/mL)
Lab book: enter the figure in ng/mL, no units written.

QUERY: Field request: cmax | item: COc1cc(C(=O)/C=C/c2ccc(F)cc2)cc(OC)c1OC [C16, 4-fluoro-3’,4’,5’-trimethoxychalcone]
RESULT: 107

---

test_description: Whole-blood PK study (IV, IP and PO) in male CD-1 mice
Assay type: in vivo, mouse
cond: male, CD-1, mouse, whole blood, po, 10 mg/kg, mouse blood, PO 10 mg/kg, individual animals 7-9; read-out: Bioavailability
measured_attribute: Bioavailability (%)
Lab book: enter the figure in %, no units written.

QUERY: Field request: Bioavailability | item: COc1cc(C(=O)/C=C/c2ccc(F)cc2)cc(OC)c1OC [C16, 4-fluoro-3’,4’,5’-trimethoxychalcone]
RESULT: 11.6
